// provenance: patent US10669284B2

EXPERIMENTAL TARGET: Full-length human MNK1 (Homo sapiens, UniProt Q9BUB5, T385D)
Construct: GST (N); purchased Carna Biosciences 02-145; host or cells: baculovirus expression system
Sequence (Q9BUB5 1-424 isoform Q9BUB5-2 T344D): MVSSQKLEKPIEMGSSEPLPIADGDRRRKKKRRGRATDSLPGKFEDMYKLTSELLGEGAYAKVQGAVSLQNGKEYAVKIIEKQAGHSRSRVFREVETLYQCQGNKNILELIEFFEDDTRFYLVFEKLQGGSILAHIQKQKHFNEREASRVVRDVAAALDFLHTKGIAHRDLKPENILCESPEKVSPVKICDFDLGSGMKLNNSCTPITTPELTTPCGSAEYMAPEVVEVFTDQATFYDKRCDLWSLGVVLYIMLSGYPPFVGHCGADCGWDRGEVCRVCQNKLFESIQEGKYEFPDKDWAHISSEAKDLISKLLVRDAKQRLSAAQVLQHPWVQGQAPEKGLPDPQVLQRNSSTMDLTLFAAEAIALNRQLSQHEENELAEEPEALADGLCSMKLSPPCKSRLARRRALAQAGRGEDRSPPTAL
TEST PROTOCOL: MNK1 biochemical IC50 assay (Caliper Mobility Shift Assay)
MEASUREMENT CONTEXT: read-out: P(IC50) MNK1 (converted)
In this section, each of the compounds is paired with its reported IC50.

COMPOUND: CC(C)Oc1cc(F)ccc1Nc1ncnc2sc(C(=O)NCC3CNCCO3)nc12 (stereo not shown)
IC50 [nM]: 50.1
--
COMPOUND: CC1(C)CN(C(=O)c2nc3c(N4CCc5ccccc54)ncnc3s2)CCO1
IC50 [nM]: 158
--
COMPOUND: CC1Cc2ccccc2N1c1ncnc2sc(C(=O)NC3CCN(C)CC3)nc12 (stereo not shown)
IC50 [nM]: 25.1
--
COMPOUND: CC1(C)CN(c2ncnc3sc(C(=O)NCC4CCNCC4)nc23)c2ccccc21
IC50 [nM]: 3.16
--
COMPOUND: CC1(CO)CN(c2ncnc3sc(C(=O)NCC4CCNCC4)nc23)c2ccccc21 (stereo not shown)
IC50 [nM]: 6.31
--
COMPOUND: CC1Cc2ccccc2N1c1ncnc2sc(C(=O)NC3CCOCC3)nc12 (stereo not shown)
IC50 [nM]: 39.8
--
COMPOUND: CC1Cc2ccccc2N1c1ncnc2sc(C(=O)NCCCN(C)C)nc12 (stereo not shown)
IC50 [nM]: 25.1
--
COMPOUND: CC(C)Oc1cc(F)ccc1Nc1ncnc2sc(C(=O)NC3CCOCC3)nc12
IC50 [nM]: 100
--
COMPOUND: CNCCC1CN(c2ncnc3sc(C(=O)NC4CCOCC4)nc23)c2ccccc21 (stereo not shown)
IC50 [nM]: 31.6
--
COMPOUND: CN(C)CCCNC(=O)c1nc2c(N3CCc4ccccc43)ncnc2s1
IC50 [nM]: 10
--
COMPOUND: O=C(NC1CCOCC1)c1nc2c(N3CCc4ccccc43)ncnc2s1
IC50 [nM]: 12.6
--
COMPOUND: CC(C)Oc1cc(F)ccc1Nc1ncnc2sc(C(=O)NCCCO)nc12
IC50 [nM]: 50.1
--
COMPOUND: CC(C)Oc1ccccc1Nc1ncnc2sc(C(=O)NCCCN(C)C)nc12
IC50 [nM]: 100
